The molecules below have reported LAL EU/mg of product for Limulus Amoebocyte Lysate.

Below, each entry is followed by its recorded LAL EU/mg of product result.
CCCCCCCCCCCC(=O)O[C@H](CCCCCCCCCCC)CC(=O)NC(CCOP(=O)(O)O)C(=O)NCCCC(COC(=O)CCCCCN)NC(=O)C[C@H](O)CCCCCCCCCCC (some centres unmarked) | 6 EU/mg of product
CCCCCCCCCCCC(=O)O[C@H](CCCCCCCCCCC)CC(=O)NC(CCOP(=O)(O)O)C(=O)NCCCC(COC(=O)CCCCCO)NC(=O)C[C@H](O)CCCCCCCCCCC (some centres unmarked) | 1820 EU/mg of product
CCCCCCCCCCCC(=O)O[C@H](CCCCCCCCCCC)CC(=O)N[C@H](CC(=O)O)C(=O)NCCC[C@H](COP(=O)(O)O)NC(=O)C[C@H](O)CCCCCCCCCCC | 210.5 EU/mg of product

Entry CCCCCCCCCCCC(=O)O[C@H](CCCCCCCCCCC)CC(=O)N[C@H](CC(=O)N[C@@H](CC(=O)O)C(=O)O)C(=O)NCCC[C@H](COC(=O)CCCCCN)NC(=O)C[C@H](O)CCCCCCCCCCC needs its LAL EU/mg of product filled in; supply it.
2307 EU/mg of product

Using the record for CCCCCCCCCCCC(=O)O[C@H](CCCCCCCCCCC)CC(=O)N[C@H](CC(=O)N[C@@H](CCCCN)C(=O)O)C(=O)NCCC[C@H](COC(=O)CCCCCN)NC(=O)C[C@H](O)CCCCCCCCCCC , state its measured LAL EU/mg of product.
<2.5 EU/mg of product
